So I've got log10 of MIC readings for Ser. marcescens A-20019, take a look.
Log10 applied to MIC; unit prior to transform: µg/mL.

Entry CSC(SC)C1=C(C(=O)O)N2C(=O)CC2S1 (stereo not drawn) has what log10 of MIC? 1.80

"O=C([O-])C1=C(Cc2ccco2)S[C@@H]2CC(=O)N12.[Na+]" , same question. 1.51

Repeat for the following compound: "N[C@H]1C[C@H](C2=C(C(=O)O)N3C(=O)C[C@H]3S2)C1" 0.30

NCCOCC1=C(C(=O)O)N2C(=O)CC2S1 (stereo not drawn) ? 0.30

Next compound up: C[C@@H](O)[C@H]1C(=O)N2C(C(=O)O)=C([C@H]3C[C@H](N)C3)S[C@H]12 (relative stereo) -0.30

// same read-out, input: CC(C)OP(=O)(CCC1=C(C(=O)O)N2C(=O)CC2S1)OC(C)C (stereo not drawn) 2.10

Here is the next compound: "COCC1=C(C(=O)[O-])N2C(=O)C[C@H]2S1.[Na+]" 0.60

Now this one: O=C([O-])C1=C(c2cccnc2)S[C@@H]2CC(=O)N12.[Na+] [Example 53, Sodium 2-(3-Pyridyl)penem-3-carboxylate] 0.90

What do you have for NCC(=O)OCC1=C(C(=O)O)N2C(=O)CC2S1 (stereo not drawn) ? 0.90

Try this compound too: CCOP(=O)(CCC1=C(C(=O)O)N2C(=O)CC2S1)OCC (stereo not drawn) 1.80

Now the compound N=C(NCC1=C(C(=O)O)N2C(=O)CC2S1)c1ccccc1 (stereo not drawn) 2.10

// repeat for CC1=C(C(=O)O)N2C(=O)[C@H]([C@@H](C)O)[C@H]2S1 (relative stereo) and report 1.20

What would you report for "CSCC1=C(C(=O)O)N2C(=O)C[C@H]2S1" ? 0.60

Ok, now NC=NCC1=C(C(=O)O)N2C(=O)CC2S1 (stereo not drawn) 1.80

Please answer likewise for CCCCCC1=C(C(=O)[O-])N2C(=O)C[C@H]2S1.[K+] [Preparation 16, Potassium 2-Pentylpenem-3-carboxylate] 2.10

Repeat with O=C(O)C1=C(Cc2cccs2)SC2CC(=O)N12 (stereo not drawn) 1.51

Quick one: NCCCCC1=C(C(=O)O)N2C(=O)CC2S1 (stereo not drawn) 1.20

Also, N#CCCC(N)C1=C(C(=O)O)N2C(=O)C[C@H]2S1 (stereo partly drawn) please. 0.60

Follow-up entry: CCC(N)CC1=C(C(=O)O)N2C(=O)CC2S1 (stereo not drawn) 0.90

Same read-out for O=C(O)C1=C(Cc2c[nH]c3ccccc23)SC2CC(=O)N12 (stereo not drawn) ? 1.80

Next up: CC1=C(C(=O)O)N2C(=O)[C@H](C(C)(C)O)[C@H]2S1 (relative stereo) 1.80

// repeat for CC1=C(C(=O)O)N2C(=O)[C@@H]([C@H](C)O)[C@H]2S1 (relative stereo) and report 0.90

Follow-up entry: "O=C([O-])C1=C(CO)S[C@@H]2CC(=O)N12.[Na+]" 1.51

Try O=C(O)C1=C(C2CCC2)SC2CC(=O)N12 (stereo not drawn) next. 1.20

For O=C(O)C1=C(c2cscn2)SC2CC(=O)N12 (stereo not drawn) then? 1.80

Please give the result for O=C(O)C1=C(Cn2cnnn2)SC2CC(=O)N12 (stereo not drawn) too. 1.20

And what about the compound O=C(O)C1=C(CCCNO)SC2CC(=O)N12 (stereo not drawn) ? 0.00

Same question for CC(N)CCC1=C(C(=O)O)N2C(=O)C[C@H]2S1 (stereo partly drawn) please. 0.90
